target: PRMT5 (Homo sapiens, UniProt O14744); construct: purchased Viva (custom protein); assay: PRMT5 biochemical IC50 assay with MTA as cofactor; conditions: PRMT5, MTA as cofactor; read-out: MTA IC50
Sequence (O14744 whole entry): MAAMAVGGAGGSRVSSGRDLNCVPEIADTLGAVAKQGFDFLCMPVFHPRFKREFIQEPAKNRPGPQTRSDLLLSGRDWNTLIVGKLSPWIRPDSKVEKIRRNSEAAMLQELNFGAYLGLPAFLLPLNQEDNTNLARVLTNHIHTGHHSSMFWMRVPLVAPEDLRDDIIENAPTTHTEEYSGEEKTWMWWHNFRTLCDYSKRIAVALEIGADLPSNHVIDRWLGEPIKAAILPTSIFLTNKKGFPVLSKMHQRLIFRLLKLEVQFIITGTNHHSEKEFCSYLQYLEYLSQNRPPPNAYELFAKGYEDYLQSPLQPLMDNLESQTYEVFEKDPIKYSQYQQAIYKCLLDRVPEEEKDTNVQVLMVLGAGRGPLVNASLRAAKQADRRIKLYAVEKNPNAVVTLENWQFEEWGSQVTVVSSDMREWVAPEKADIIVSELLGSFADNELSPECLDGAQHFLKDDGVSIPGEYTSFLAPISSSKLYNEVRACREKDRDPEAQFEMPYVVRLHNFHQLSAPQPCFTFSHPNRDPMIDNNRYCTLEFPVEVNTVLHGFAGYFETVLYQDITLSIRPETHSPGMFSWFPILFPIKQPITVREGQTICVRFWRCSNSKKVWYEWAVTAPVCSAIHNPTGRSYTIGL
Sequence (Q9BQA1 whole entry partner): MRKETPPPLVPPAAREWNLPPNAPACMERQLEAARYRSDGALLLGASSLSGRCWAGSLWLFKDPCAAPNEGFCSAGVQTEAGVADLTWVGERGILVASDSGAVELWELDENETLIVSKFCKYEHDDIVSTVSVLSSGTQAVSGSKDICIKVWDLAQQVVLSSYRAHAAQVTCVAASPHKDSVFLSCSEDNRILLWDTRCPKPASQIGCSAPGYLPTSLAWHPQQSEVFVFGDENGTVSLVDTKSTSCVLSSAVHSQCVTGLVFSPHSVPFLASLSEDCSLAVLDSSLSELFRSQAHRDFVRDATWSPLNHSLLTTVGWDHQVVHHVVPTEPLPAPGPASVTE
molecules and their reported IC50
MEASURED PARAMETER: IC50

C[C@H]1CC[C@H](c2ccc3sc(CCN(C)C)nc3c2)N(C(=O)C(=O)Nc2cncc(C(N)=O)c2)C1 (single isomer, unassigned); > 500 nM
Cc1cc(NC(=O)C(=O)N2C[C@H](C)CC[C@H]2c2ccc(-c3ccn[nH]3)cc2)cnc1N (racemic) [Compound 526]; 50 to 500 nM
Cc1cc(NC(=O)C(=O)N2C[C@H](C)[C@@H](C)C[C@@H]2c2ccccc2)cnc1N (single isomer, unassigned); > 500 nM

FYI, the data here is from patent US11999727B2.
